target: Epidermal growth factor receptor (Homo sapiens, UniProt P00533, L858R/T790M); experiment: Inhibition of EGFR L858R/T790M mutant (unknown origin) by ELISA
Sequence (P00533 25-1210 T790M/L858R limits assumed): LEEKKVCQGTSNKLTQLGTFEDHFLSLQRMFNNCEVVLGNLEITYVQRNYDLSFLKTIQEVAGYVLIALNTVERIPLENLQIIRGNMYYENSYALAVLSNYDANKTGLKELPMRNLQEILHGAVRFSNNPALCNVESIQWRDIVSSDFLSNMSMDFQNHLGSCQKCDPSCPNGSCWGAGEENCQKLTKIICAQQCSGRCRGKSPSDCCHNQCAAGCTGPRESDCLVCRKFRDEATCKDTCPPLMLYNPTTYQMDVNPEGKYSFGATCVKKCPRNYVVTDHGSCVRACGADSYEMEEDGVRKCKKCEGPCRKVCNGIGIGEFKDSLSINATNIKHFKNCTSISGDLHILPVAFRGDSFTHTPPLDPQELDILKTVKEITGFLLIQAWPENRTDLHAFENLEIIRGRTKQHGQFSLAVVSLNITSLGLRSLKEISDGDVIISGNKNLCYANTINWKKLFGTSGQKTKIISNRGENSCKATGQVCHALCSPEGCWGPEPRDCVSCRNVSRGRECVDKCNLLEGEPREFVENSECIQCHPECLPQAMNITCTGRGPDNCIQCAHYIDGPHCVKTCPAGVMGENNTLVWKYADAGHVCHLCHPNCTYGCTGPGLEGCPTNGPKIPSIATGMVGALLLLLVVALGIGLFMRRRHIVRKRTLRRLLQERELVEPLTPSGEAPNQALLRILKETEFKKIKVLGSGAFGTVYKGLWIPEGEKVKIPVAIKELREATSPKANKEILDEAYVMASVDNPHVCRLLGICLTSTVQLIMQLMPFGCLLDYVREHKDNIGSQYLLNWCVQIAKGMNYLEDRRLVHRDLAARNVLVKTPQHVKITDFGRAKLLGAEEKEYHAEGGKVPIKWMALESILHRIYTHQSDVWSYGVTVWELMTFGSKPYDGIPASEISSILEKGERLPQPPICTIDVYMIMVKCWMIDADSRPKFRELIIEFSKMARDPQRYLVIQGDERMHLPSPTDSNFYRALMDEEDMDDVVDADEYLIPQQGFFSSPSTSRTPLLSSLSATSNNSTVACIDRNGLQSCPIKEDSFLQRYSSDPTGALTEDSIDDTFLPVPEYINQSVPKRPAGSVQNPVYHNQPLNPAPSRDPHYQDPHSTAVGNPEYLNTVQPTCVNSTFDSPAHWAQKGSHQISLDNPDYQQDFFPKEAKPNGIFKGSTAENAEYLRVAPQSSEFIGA
compounds and their reported IC50
Just the number please, in nM, no unit attached.

CCS(=O)(=O)n1cc(-c2nc(Nc3cc(Cl)c(N4CCC(N5CCN(C)CC5)CC4)cc3OC)ncc2Cl)c2ccccc21 ... 6.6
CCOc1cc(N2CCC(N3CCN(C)CC3)CC2)c(Cl)cc1Nc1ncc(Cl)c(-c2cn(S(=O)(=O)CC)c3ccccc23)n1 ... 7.5
COc1cc(N2CCC(N3CCN(C)CC3)CC2)ccc1Nc1ncc(Cl)c(-c2c[nH]c3ccccc23)n1 ... 15.6

Let's switch to this compound now.
Task item: Record request: IC50 value, item `CCS(=O)(=O)n1cc(-c2nc(Nc3cc(Cl)c(N4CCC(N5CCN(C)CC5)CC4)cc3C)ncc2Cl)c2ccccc21`
Reply: 16.3
